# ASSAY TARGET: antibody (antiacebutolol amine immune serum)
# MEASUREMENT NOTES: Competitive binding inhibition of 3H-(-)-propranolol to anti-acebutolol amine antibody (radioimmunoassay)
# REPORTED CONDITIONS: 3H-(-)-propranolol displacement from antibody; read-out: apparent KD (competitive binding inhibition)
pKd: −log10 of the molar value.

COMPOUND | ASSAY TARGET | pKd
CC(C)NCC(O)COc1ccc(O)c2ccccc12 (stereo not shown) [4-hydroxypropranolol] | antibody (antiacebutolol amine immune serum) | 8.00

====

# MEASUREMENT NOTES: clinical
# REPORTED CONDITIONS: human, in vivo, iv, serum half-life

COMPOUND | half-life
CC(C)NCC(O)COc1cccc2ccccc12 (racemic) | ~7.5 h

====

# MEASUREMENT NOTES: clinical
# REPORTED CONDITIONS: human, in vivo, iv, range of serum half-life observed in subjects
METRIC: half-life

COMPOUND | RECORDED RESULT
CC(C)NCC(O)COc1cccc2ccccc12 (racemic) | 5 to 7.5 h
